pIC50: −log10 of the molar value.
// merged dataset of pIC50 values, system = Sodium-dependent noradrenaline transporter (Homo sapiens, UniProt P23975), multiple refs
Sequence (P23975 whole entry): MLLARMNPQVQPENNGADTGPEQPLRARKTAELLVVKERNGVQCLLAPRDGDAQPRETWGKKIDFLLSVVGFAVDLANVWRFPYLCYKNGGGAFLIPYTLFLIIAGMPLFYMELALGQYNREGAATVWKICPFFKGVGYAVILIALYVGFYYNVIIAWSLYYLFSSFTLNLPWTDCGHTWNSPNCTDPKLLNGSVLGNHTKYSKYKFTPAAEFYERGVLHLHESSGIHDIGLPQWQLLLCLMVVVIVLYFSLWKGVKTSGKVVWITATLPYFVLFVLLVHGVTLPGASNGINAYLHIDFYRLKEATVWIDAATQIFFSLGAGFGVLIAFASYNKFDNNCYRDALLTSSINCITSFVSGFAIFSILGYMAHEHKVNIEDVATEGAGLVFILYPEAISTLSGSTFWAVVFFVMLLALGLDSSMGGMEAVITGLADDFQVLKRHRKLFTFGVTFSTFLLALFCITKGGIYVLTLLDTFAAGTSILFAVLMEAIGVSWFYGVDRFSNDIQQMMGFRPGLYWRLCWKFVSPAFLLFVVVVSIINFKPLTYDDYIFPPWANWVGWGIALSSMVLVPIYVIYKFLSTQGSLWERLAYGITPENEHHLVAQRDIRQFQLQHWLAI
Note to self: values exactly at 7 are Satisfied. So pIC50 at or above 7 is Satisfied, below is Not satisfied.

CN1CCN(C[C@H](c2cccc(Cl)c2)C2(O)CCCCC2)CC1; Satisfied
Cc1ccc(N(C)c2ccccc2CN(C)C)c(N)c1; Not satisfied
C=C(F)CN(C)C(=O)[C@@]1(c2ccc3c(c2)OCCO3)C[C@H]1CN; Satisfied
C#CCN(CC#C)C(=O)[C@@]1(c2cccs2)C[C@H]1CN; Satisfied
OC1(C(CN2CCNCC2)c2cccc(F)c2)CCCCC1 (configuration not stated); Not satisfied

Please check the record CNC[C@H](O)[C@H](c1ccccc1)n1ccc2cc(OC)ccc21 (racemic) and state if its pIC50 is at or above 7.
Not satisfied

Please check the record CNC[C@@H](O)[C@H](c1cccc(F)c1)n1ccc2c(Br)cccc21 and state if its pIC50 is at or above 7.
Satisfied

Please check the record CNCC[C@@H](c1ccccc1)N1C(=O)C(C)(C)c2ccccc21 and state if its pIC50 is at or above 7.
Not satisfied

Please check the record CN1CCN(C[C@H](c2csc(Cl)c2)C2(O)CCCCC2)CC1 and state if its pIC50 is at or above 7.
Satisfied

Please check the record CNC[C@@H](O)[C@H](c1ccccc1C)n1ccc2ccccc21 and state if its pIC50 is at or above 7.
Not satisfied

Please check the record C#CCN(CC#C)C(=O)[C@@]1(c2ccc3c(c2)OCCO3)C[C@H]1CN and state if its pIC50 is at or above 7.
Satisfied

Please check the record OC1(C(CN2CCNCC2)c2cccc(Cl)c2)CCCCC1 (configuration not stated) and state if its pIC50 is at or above 7.
Satisfied

Please check the record CNCC[C@H](c1ccccc1)n1c(=O)n(C(C)C)c2cccc(F)c21 and state if its pIC50 is at or above 7.
Satisfied

Please check the record C=CCN(CC=C)C(=O)[C@@]1(c2ccc3c(c2)OCCO3)C[C@H]1CN and state if its pIC50 is at or above 7.
Satisfied

Please check the record CNCC[C@H](c1cccc(Cl)c1)N1C(=O)C(C)(C)c2cccc(F)c21 and state if its pIC50 is at or above 7.
Satisfied

Please check the record COc1ccc(C2=NN(CCCCCNCC[C@@H](Oc3cccc4ccccc34)c3cccs3)C(=O)[C@@H]3CC=CC[C@H]23)cc1OC and state if its pIC50 is at or above 7.
Not satisfied

Please check the record CN1CCN(CC(c2cccc(Cl)c2)C2(O)CCCCC2)CC1 (configuration not stated) and state if its pIC50 is at or above 7.
Satisfied
